Target Entity: Transitional endoplasmic reticulum ATPase (Homo sapiens)
Parameter: IC50 (µM)
Express the result in µM but write the number alone.

# query: IC50 | item C=C1OC(=O)C2(C1=O)[C@H](/C=C/C=C/CCC)C=C[C@@H](O)[C@@H]2O (mixture of isomers) | system: Transitional endoplasmic reticulum ATPase (Homo sapiens)
31.2

----------
Target Entity: Transitional endoplasmic reticulum ATPase (Homo sapiens, UniProt P55072, C209A)
Sequence (P55072 2-806 C209A limits assumed): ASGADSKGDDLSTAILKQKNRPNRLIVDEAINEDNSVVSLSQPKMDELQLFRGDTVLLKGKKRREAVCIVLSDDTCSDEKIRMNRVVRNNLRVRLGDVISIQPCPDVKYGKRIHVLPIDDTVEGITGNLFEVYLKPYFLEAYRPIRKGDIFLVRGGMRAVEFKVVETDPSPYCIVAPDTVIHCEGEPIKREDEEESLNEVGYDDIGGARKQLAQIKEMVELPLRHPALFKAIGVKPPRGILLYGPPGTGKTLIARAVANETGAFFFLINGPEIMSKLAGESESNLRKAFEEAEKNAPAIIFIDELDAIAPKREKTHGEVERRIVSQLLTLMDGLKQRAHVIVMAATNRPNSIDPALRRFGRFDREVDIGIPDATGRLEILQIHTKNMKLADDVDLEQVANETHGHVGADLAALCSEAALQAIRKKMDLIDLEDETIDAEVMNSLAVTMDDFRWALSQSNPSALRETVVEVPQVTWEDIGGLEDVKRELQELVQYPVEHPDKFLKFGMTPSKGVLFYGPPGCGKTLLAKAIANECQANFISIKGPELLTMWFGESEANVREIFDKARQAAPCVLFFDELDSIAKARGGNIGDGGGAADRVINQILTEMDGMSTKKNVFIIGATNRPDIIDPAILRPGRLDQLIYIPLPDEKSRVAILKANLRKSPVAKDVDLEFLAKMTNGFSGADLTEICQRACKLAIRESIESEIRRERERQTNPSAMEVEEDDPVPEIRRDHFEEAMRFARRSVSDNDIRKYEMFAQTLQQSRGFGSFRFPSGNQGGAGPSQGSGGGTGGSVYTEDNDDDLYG
Test: Inhibition of p97-C209A mutant (unknown origin) after 10 mins by malachite green dye based visible spectrophotometry
Parameter: pIC50
# log scale: pIC50 equals minus log10 of the concentration in mol/L

Returns the measured pIC50 for the input compound. Input: C=C1OC(=O)C2(C1=O)[C@H](/C=C/C=C/CCC)C=C[C@@H](O)[C@@H]2O (mixture of isomers)
4.74

# credit: ChEMBL document CHEMBL3797126
